All values here come from ChEMBL document CHEMBL1152863.

Measured CC50 at 72 h, listed per entry for reference.
experimental protocol: Cytotoxicity against african green monkey Vero cells after 72 hrs by MTT assay
Type: cell-based
particulars: chlorocebus sabaeus
The figure you give is taken to be in mM; do not add the unit.

Known CC50 at 72 h results, listed for orientation:
CO[C@@H]1O[C@H](COC(=O)c2nnn(Cc3ccccc3)c2C)[C@H]2OC(C)(C)O[C@@H]12; 0.837
Cc1c(C(=O)O[C@H]2[C@H]3OC(C)(C)O[C@H]3O[C@@H]2[C@H]2COC(C)(C)O2)nnn1Cc1ccccc1; 3.53

// moving on: another record for CC50 at 72 h
CC50 at 72 h for "Cc1c(C(=O)O[C@H]2[C@@H]3OC(C)(C)O[C@@H]3CO[C@]23COC(C)(C)O3)nnn1Cc1ccccc1" is 2.75
